# Measurement Target: RIPK1 (recombinant GST-RIPK1 kinase domain, residues 1-327) (Homo sapiens (Human), UniProt Q13546)
# Sequence (Q13546 1-327): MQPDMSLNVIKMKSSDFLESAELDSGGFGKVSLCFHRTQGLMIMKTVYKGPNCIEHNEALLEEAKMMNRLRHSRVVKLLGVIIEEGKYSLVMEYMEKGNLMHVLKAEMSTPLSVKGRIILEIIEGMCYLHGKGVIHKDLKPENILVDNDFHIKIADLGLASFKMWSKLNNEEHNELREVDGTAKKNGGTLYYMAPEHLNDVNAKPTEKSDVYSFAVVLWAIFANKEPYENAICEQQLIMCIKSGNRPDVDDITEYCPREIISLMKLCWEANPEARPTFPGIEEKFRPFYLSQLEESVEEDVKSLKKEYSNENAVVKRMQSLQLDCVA
# Experimental Details: RIPK1-ADP-Glo Enzymatic Assay
# Format: biochemical
# Conditions: ADP-Glo; 25 nM GST-RIPK1, 300 μM ATP; assay lower limit ~25 nM; read-out: RIPK1 V0 Ec50
Endpoint Label: EC50 (nM)

> print(dat)
                            compound.smiles  endpoint.label  measured.value
1  CC(C)Oc1cccc(C(=O)N2CCC3(CC2)O[C@@H]2CC[C@@H](c4cc(F)cc(F)c4)N2C3=O)n1            EC50            36.1

P. COc1ccc(N2CCC3(CC2)O[C@@H]2CC[C@@H](c4ccccc4)N2C3=O)n2ncnc12
Q. COc1cc(N2CCC3(CC2)O[C@@H]2CC[C@@H](c4cccc(F)c4)N2C3=O)ncn1
R. COc1cc(N2CCC3(CC2)O[C@@H]2CC[C@@H](c4cc(F)cc(F)c4)N2C3=O)nc(C)c1C#N
S. O=C(c1ccc(O)cc1F)N1CCC2(CC1)O[C@@H]1CC[C@@H](c3cc(F)cc(F)c3)N1C2=O
Please list these compounds in decreasing order of EC50. Form entry: ranked labels (order as requested).
P, R, Q, S

I. N#Cc1ccccc1C(=O)N1CCC2(CC1)O[C@@H]1CC[C@@H](c3cc(F)cc(F)c3)N1C2=O
II. N#Cc1ccc(N2CCC3(CC2)O[C@@H]2CC[C@@H](c4cc(F)cc(F)c4)N2C3=O)cc1-n1ccnn1
III. O=C1N2[C@@H](CC[C@H]2c2ccccc2F)OC12CN(c1ccnc(-c3cnn(C(F)F)c3)c1)C2
Order the entries by their reported EC50, beginning at the minimum. Form entry: labels listed in requested order.
II, III, I

* * *

# Measurement Target: RIPK1 (recombinant GST-RIPK1 kinase domain, residues 1-327) (Homo sapiens (Human))
# Experimental Details: RIPK1-ADP-Glo Enzymatic Assay
# Format: biochemical
# Conditions: ADP-Glo; 25 nM GST-RIPK1, 300 μM ATP; assay lower limit ~25 nM; read-out: RIPK1 V0 Ec50
Endpoint Label: EC50

Record "O=C(c1cc(F)ccc1F)N1CCC2(CC1)O[C@@H]1CC[C@@H](c3ccccc3)N1C2=O" , field EC50: < 25 nM

Measured EC50 of O=C1N2[C@@H](CC[C@H]2c2ccccc2)OC12CN(c1cccc3ncnn13)C2 [Example 4.133] : 48.8 nM

The value of EC50 measured for the compound "O=C1N2[C@@H](CC[C@H]2c2ccccc2)OC12CCN(c1ccc(F)c3ncnn13)CC2" turned out to be < 25 nM

EC50 reported for this compound "O=C1N2[C@@H](CC[C@H]2c2cc(F)ccc2F)OC12CCN(c1ccnc3ccnn13)CC2" : < 25 nM

* * *

# Measurement Target: RIPK1 (recombinant GST-RIPK1 kinase domain, residues 1-327) (Homo sapiens (Human), UniProt Q13546)
# Experimental Details: RIPK1-ADP-Glo Enzymatic Assay
# Assay type: biochemical
# Conditions: ADP-Glo; 25 nM GST-RIPK1, 300 μM ATP; assay lower limit ~25 nM; read-out: RIPK1 V0 Ec50
Endpoint Label: EC50

> print(dat)
                                   compound  endpoint.label  measured.value
1  N#Cc1cc(C(=O)N2CCC3(CC2)O[C@@H]2CC[C@@H](c4ccccc4)N2C3=O)ccc1F [Example 6.138]            EC50         < 25 nM
2  O=C(c1c(F)cc(F)cc1F)N1CCC2(CC1)O[C@@H]1CC[C@@H](c3ccccc3)N1C2=O [Example 5.8]            EC50         < 25 nM

For N#Cc1cnc(N2CCC3(CC2)O[C@@H]2CC[C@@H](c4cc(F)cc(F)c4)N2C3=O)cc1F [Example 4.75] the compound record lists EC50 as < 25 nM

Sample N#Cc1cnc(N2CCC3(CC2)S[C@@H]2CC[C@@H](c4ccccc4)N2C3=O)n2ncnc12 [Example 4.146] ; EC50 observed: < 25 nM

src = patent US12180226B2
